Test: clinical
Assay type: in vivo, human
Conditions: both sexes, human, in vivo, Alpha half-life
Text: This method was then verified prospectively in three additional patients (see Example IV). However, the CL was lower in females compared to males.
REPORTED_METRIC: half-life

Incoming: # lookup: half-life of Cc1ccc(C(=O)Nc2ccc(S(=O)(=O)O)c3cc(S(=O)(=O)O)cc(S(=O)(=O)O)c23)cc1NC(=O)c1cccc(NC(=O)Nc2cccc(C(=O)Nc3cc(C(=O)Nc4ccc(S(=O)(=O)O)c5cc(S(=O)(=O)O)cc(S(=O)(=O)O)c45)ccc3C)c2)c1 [suramin]
Outgoing: 4.4 h

###

Experiment: clinical
Type: in vivo, human
Conditions: male, human, in vivo, Beta half-life
REPORTED_METRIC: half-life (h)
Response body: numeric value in h, unit text excluded.

Incoming: I would be grateful if you could share the reported half-life for Cc1ccc(C(=O)Nc2ccc(S(=O)(=O)O)c3cc(S(=O)(=O)O)cc(S(=O)(=O)O)c23)cc1NC(=O)c1cccc(NC(=O)Nc2cccc(C(=O)Nc3cc(C(=O)Nc4ccc(S(=O)(=O)O)c5cc(S(=O)(=O)O)cc(S(=O)(=O)O)c45)ccc3C)c2)c1 .
Outgoing: 240
